Molecular target: recombinant human S-COMT (Homo sapiens)
Construct: made in house
Sequence (P21964 1-221 isoform P21964-2): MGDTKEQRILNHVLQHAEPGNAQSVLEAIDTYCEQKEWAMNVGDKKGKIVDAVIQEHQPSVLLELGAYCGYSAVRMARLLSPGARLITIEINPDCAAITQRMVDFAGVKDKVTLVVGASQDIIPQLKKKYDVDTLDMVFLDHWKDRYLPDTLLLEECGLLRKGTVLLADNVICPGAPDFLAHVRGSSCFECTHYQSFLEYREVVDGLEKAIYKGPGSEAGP
Assay: Inhibition kinetics of human S-COMT catalysed O-methylation of 3-BTD
Assay type: biochemical
Conditions: global fit, with respect to 3-BTD, saturated SAM; read-out: Ki
pKi: −log10 of the molar value.
ENDPOINT: pKi

chemical_structure=C=C(C)[C@@H]1CC[C@]2(C(=O)O)CC[C@]3(C)[C@H](CC[C@@H]4[C@@]5(C)CC[C@H](O)C(C)(C)[C@@H]5CC[C@]43C)[C@@H]12 endpoint=pKi quantitative_readout=5.25

###

Target: recombinant human S-COMT (Homo sapiens)
Construct: made in house
Sequence (P21964 1-221 isoform P21964-2): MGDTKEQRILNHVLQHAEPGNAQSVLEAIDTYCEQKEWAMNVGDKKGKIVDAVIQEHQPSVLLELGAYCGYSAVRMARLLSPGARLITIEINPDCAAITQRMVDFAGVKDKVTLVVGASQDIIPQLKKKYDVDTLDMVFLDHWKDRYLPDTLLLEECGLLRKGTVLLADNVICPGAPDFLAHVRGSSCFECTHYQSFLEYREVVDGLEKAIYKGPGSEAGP
Assay: Inhibition kinetics of human S-COMT catalysed O-methylation of 3-BTD
Type: biochemical
ENDPOINT: Ki (µM)

chemical_structure=CC1=C(O)C(=O)C=C2C1=CC=C1[C@@]2(C)CC[C@@]2(C)[C@@H]3C[C@](C)(C(=O)O)CC[C@]3(C)CC[C@]12C target_under_test="recombinant human S-COMT (Homo sapiens)" endpoint=Ki quantitative_readout=3.5

###

Target: recombinant human S-COMT (Homo sapiens)
Construct: made in house
Sequence (P21964 1-221 isoform P21964-2): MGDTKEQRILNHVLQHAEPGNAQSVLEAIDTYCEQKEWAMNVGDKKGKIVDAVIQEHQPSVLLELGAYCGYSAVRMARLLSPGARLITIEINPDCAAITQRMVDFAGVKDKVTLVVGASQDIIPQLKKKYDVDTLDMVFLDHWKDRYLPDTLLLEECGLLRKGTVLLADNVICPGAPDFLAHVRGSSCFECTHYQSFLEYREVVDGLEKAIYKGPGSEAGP
Assay: COMT activity inhibition assay (enzymatic activity based fluorescence assay, 3-BTD substrate)
Type: biochemical
Conditions: 2.0 μg/mL human S-COMT, 2.0 μM 3-BTD as substrate, 200 μM SAM; mean ± SE; read-out: IC50
pIC50: −log10 of the molar value.
Listing: pIC50 of selected compounds
ENDPOINT: pIC50

compound="CC1(C)CC[C@]2(C(=O)O)CC[C@]3(C)C(=CC[C@@H]4[C@@]5(C)CC[C@H](O)[C@@](C)(CO)[C@@H]5CC[C@]43C)[C@@H]2C1 [Compound 2, Hederagenin]" target_under_test="recombinant human S-COMT (Homo sapiens)" quantitative_readout=5.08
compound="Oc1cc(O)c2c(c1)O[C@H](c1ccc(O)c(O)c1)[C@H](O)C2 [Epicatechin, reference compound]" target_under_test="recombinant human S-COMT (Homo sapiens)" quantitative_readout=5.02
compound="C=C(C)[C@@H]1CC[C@]2(C=O)CC[C@]3(C)[C@H](CC[C@@H]4[C@@]5(C)CC[C@H](O)C(C)(C)[C@@H]5CC[C@]43C)[C@@H]12 [Compound 14, Betulinic aldehyde]" target_under_test="recombinant human S-COMT (Homo sapiens)" quantitative_readout=5.00

###

Molecular target: recombinant human S-COMT (Homo sapiens)
Construct: made in house
Experiment: COMT activity inhibition assay (enzymatic activity based fluorescence assay, 3-BTD substrate)
Type: biochemical
Details: 2.0 μg/mL human S-COMT, 2.0 μM 3-BTD as substrate, 200 μM SAM; mean ± SE; read-out: IC50
Mark each entry T if its IC50 sits below 30 µM, and F for all others.

compound=C[C@H]1[C@H](C)CC[C@]2(C)CC[C@]3(C)C(=CC[C@@H]4[C@@]5(C)CC[C@@H](O)[C@](C)(C(=O)O)[C@@H]5CC[C@]43C)[C@H]12 category=T
compound="C=C(C)[C@@H]1CC[C@]2(C(=O)O)CC[C@]3(C)[C@H](CC[C@@H]4[C@@]5(C)CC[C@H](O)[C@@](C)(CO)[C@@H]5CC[C@]43C)[C@@H]12 [Compound 16, 23-Hydroxybetulinic acid]" category=F
compound=CC1(C)[C@@H](O)CC[C@]2(C)[C@H]3C(=O)C=C4[C@@H]5C[C@@](C)(C(=O)O)CC[C@]5(C)CC[C@@]4(C)[C@]3(C)CC[C@@H]12 category=F
compound=C=C(C)[C@@H]1CC[C@]2(C)CC[C@]3(C)[C@H](CC[C@@H]4[C@@]5(C)CC[C@H](O)C(C)(C)[C@@H]5CC[C@]43C)[C@@H]12 category=T
compound="C=C(C)[C@@H]1CC[C@]2(C(=O)O)CC[C@]3(C)[C@H](CC[C@@H]4[C@@]5(C)CC[C@@H](O)C(C)(C)[C@@H]5CC[C@]43C)[C@@H]12 [Compound 15, Epibetulinic acid]" category=T

###

Target: recombinant human S-COMT (Homo sapiens)
Construct: made in house
Assay: COMT activity inhibition assay (enzymatic activity based fluorescence assay, 3-BTD substrate)
Format: biochemical
pIC50: −log10 of the molar value.
pIC50 listing for selected compounds.
ENDPOINT: pIC50

compound="C=C(C)[C@@H]1CC[C@]2(CO)CC[C@]3(C)[C@H](CC[C@@H]4[C@@]5(C)CC[C@H](O)C(C)(C)[C@@H]5CC[C@]43C)[C@@H]12 [Compound 13, Betulin]" target_under_test="recombinant human S-COMT (Homo sapiens)" quantitative_readout=5.05
compound="CC1(C)CC[C@]2(C(=O)O)CC[C@]3(C)C(=CC[C@@H]4[C@@]5(C)C[C@@H](O)[C@H](O)C(C)(C)[C@@H]5CC[C@]43C)[C@@H]2C1 [Compound 3, Masline acid]" target_under_test="recombinant human S-COMT (Homo sapiens)" quantitative_readout=4.97
compound="Cc1c(O)c(O)cc2c1CC=C1C2(C)CCC2(C)C3CC(C)(C(=O)O)CCC3(C)CCC12C (stereo not drawn) [Compound 19, Hydrocelastrol]" target_under_test="recombinant human S-COMT (Homo sapiens)" quantitative_readout=4.90

These data points were gathered from paper PMC8158265.
